Where do these numbers come from? They come from paper PMC10141516.

assay-overview: Equilibrium solubility test (HPLC)
measurement-conditions: pH 1.2, aqueous buffer, thermodynamic from solid
reported-metric: solubility thermodynamic at 24 h

Quick note, solubility thermodynamic at 24 h for N[C@@H](CC(=O)N1CCn2c(nnc2C(F)(F)F)C1)Cc1cc(F)c(F)cc1F.O.O=P(O)(O)O landed at 1940 µg/mL

----------
assay-overview: Equilibrium solubility test (HPLC)
measurement-conditions: pH 10, aqueous buffer, thermodynamic from solid
Method: The column used was an Agilent C18 column (5.0 μm, 4.6 × 150 mm). The mobile phase and diluted solution of the content and dissolution studies analyses were prepared with 0.5% triethylamine buffer (v/v, pH 6.8 adjusted with 85% phosphoric acid) and acetonitrile at a ratio of 7:3 (v/v). […] In the case of the content and dissolution studies, the mobile phase was constantly flowed for 18 min via an isocratic elution method and analyzed. […]
reported-metric: solubility thermodynamic at 24 h (µg/mL)
Give bare numbers, in µg/mL.

Quick note, solubility thermodynamic at 24 h for N[C@@H](CC(=O)N1CCn2c(nnc2C(F)(F)F)C1)Cc1cc(F)c(F)cc1F.O.O=P(O)(O)O landed at 970

----------
assay-overview: Apparent solubility test (USP <1236>)
measurement-conditions: 20 °C, pH 9, aqueous buffer, thermodynamic from solid
reported-metric: solubility

Quick note, solubility for N[C@@H](CC(=O)N1CCn2c(nnc2C(F)(F)F)C1)Cc1cc(F)c(F)cc1F.O.O=P(O)(O)O landed at 1000 to 10000 µg/mL

----------
assay-overview: Equilibrium solubility test (HPLC)
measurement-conditions: pH 6.8, aqueous buffer, thermodynamic from solid
reported-metric: solubility thermodynamic at 12 h (µg/mL)
Give bare numbers, in µg/mL.

Quick note, solubility thermodynamic at 12 h for N[C@@H](CC(=O)N1CCn2c(nnc2C(F)(F)F)C1)Cc1cc(F)c(F)cc1F.O.O=P(O)(O)O [Sitagliptin] landed at 2670

----------
assay-overview: Equilibrium solubility test (HPLC)
measurement-conditions: pH 1.2, aqueous buffer, thermodynamic from solid
reported-metric: solubility thermodynamic at 12 h (µg/mL)
One number for each entry, in µg/mL.

Quick note, solubility thermodynamic at 12 h for N[C@@H](CC(=O)N1CCn2c(nnc2C(F)(F)F)C1)Cc1cc(F)c(F)cc1F.O.O=P(O)(O)O landed at 1940

----------
assay-overview: Apparent solubility test (USP <1236>)
measurement-conditions: 20 °C, pH 3, aqueous buffer, thermodynamic from solid
Experimental: Then, 200 μL of each solvent was added and stirred at 400 rpm. The temperature of the sample was maintained at 20 ± 2 °C. After shaking for 30 s every 5 min, 200 μL of each solvent was added until no particles of the API were visible. The apparent solubility of the two main components was estimated through the point at which all of the API dissolved and became clear.
reported-metric: solubility

Quick note, solubility for N[C@@H](CC(=O)N1CCn2c(nnc2C(F)(F)F)C1)Cc1cc(F)c(F)cc1F.O.O=P(O)(O)O landed at 1000 to 10000 µg/mL

----------
assay-overview: Equilibrium solubility test (HPLC)
measurement-conditions: buffer solution, pH 9, aqueous buffer, thermodynamic from solid
reported-metric: solubility thermodynamic at 12 h (µg/mL)
Give bare numbers, in µg/mL.

Quick note, solubility thermodynamic at 12 h for CCOc1ccc(Cc2cc([C@@H]3O[C@H](CO)[C@@H](O)[C@H](O)[C@H]3O)ccc2Cl)cc1 landed at 340

----------
assay-overview: Apparent solubility test (USP <1236>)
measurement-conditions: 20 °C, organic solvent or mixture, thermodynamic from solid
Method: Then, 200 μL of each solvent was added and stirred at 400 rpm. The temperature of the sample was maintained at 20 ± 2 °C. After shaking for 30 s every 5 min, 200 μL of each solvent was added until no particles of the API were visible. The apparent solubility of the two main components was estimated through the point at which all of the API dissolved and became clear.
reported-metric: solubility

Quick note, solubility for N[C@@H](CC(=O)N1CCn2c(nnc2C(F)(F)F)C1)Cc1cc(F)c(F)cc1F.O.O=P(O)(O)O landed at < 100 µg/mL

----------
assay-overview: Equilibrium solubility test (HPLC)
measurement-conditions: buffer solution, pH 4, aqueous buffer, thermodynamic from solid
reported-metric: solubility thermodynamic at 12 h (µg/mL)
Answers are plain numbers, in µg/mL.

Quick note, solubility thermodynamic at 12 h for CCOc1ccc(Cc2cc([C@@H]3O[C@H](CO)[C@@H](O)[C@H](O)[C@H]3O)ccc2Cl)cc1 [Dapagliflozin] landed at 370
